Reference source for all entries: patent WO2013139956A1

# maps each entry to its absorbance 450 nm minus 540 nm
target: T1, peptide NGGLCEEISQEVRG (SEQ ID NO:81), N-terminally biotinylated (human); assay: ELISA, biotin-peptide on neutravidin plate, antibody 1 ug/ml
T1 construct: Human lactadherin 14-mer with part of the RGD domain at the C-terminus
T1 peptide: Biotin-NGGLCEEISQEVRG
Ends that are not written are not given here. * marks the point of attachment. Biotin = O=C1N[C@H]2[C@H](CS[C@H]2CCCCC(=O)*)N1
The answer is to be given in absorbance; state only the numeric part.

// solved cases for absorbance 450 nm minus 540 nm follow
anti-lactadherin antibody 416H9 (antibody, IgG1, V domains shown, also called hybridoma 416H9; LMBP 9492CB) VH: QVTLKESGPGVLQSSQTLSLTCSFSGFSLSTSGLGVIWIRQPSGAGLEWLAQIYWDDNKRYNPSLKSRLTISKDTSRNQVFLKITPVDTADTATYYCARRTFYDYDEGFYAMDYWGQGTSVTVSS VL: DIQMTQTTSSLSASLGDRVTITCRASQDISNYLNWYQQKPDGTIKLLIYYASRLHSGVPSRFSGSGSGTDYSLTISNLEQEDIATYFCQQGNTLPLTFGAGTKLELKR | 0.02
huMc3 antibody (antibody, V domains shown) VH: EVQLVQSGAEVKKPGASVKVSCKASGYSFTGYTMHWVKQSPGMNLEWIGLINPYNGGTVYNQKFQDKATLTVDKSTSTAYMELSSLRSEDTAVYFCARRWRYTMDYWGQGTLVTVSS VL: DIVMTQSPDSLAVSLGERATITCKASQDVSIGVAWYQQKPGQSPKLLIYSASSRYTGVPDRFSGSGSGTDFTLTISSLQAEDVAVYYCQQHYTSPFTFGSGTKVEIK | 0.09
anti-lactadherin antibody 399A12 (antibody, V domains shown, Murine monoclonal, kappa light chain; Variable regions identical to those of 416H9; also called hybridoma 399A12; LMBP 9491CB) VH: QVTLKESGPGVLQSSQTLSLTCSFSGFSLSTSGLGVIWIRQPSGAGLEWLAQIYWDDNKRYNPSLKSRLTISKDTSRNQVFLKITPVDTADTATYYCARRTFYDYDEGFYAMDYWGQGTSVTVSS VL: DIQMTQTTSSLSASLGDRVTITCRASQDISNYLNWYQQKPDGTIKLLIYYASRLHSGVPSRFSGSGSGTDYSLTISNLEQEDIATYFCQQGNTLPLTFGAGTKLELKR | 0.03

Below: the item to evaluate.
The recorded absorbance 450 nm minus 540 nm for anti-lactadherin antibody 346B6 (antibody, IgG1, V domains shown, VH identical to that of 311A7; also called hybridoma 346B6; LMBP 9490CB) VH: EFQLQQSGPELVKPGASVRISCKASGYSFTDYNMNWVKQSDGKTLEWIGVINPDYGTTNNNQRFRGKATLTLDLSSSTAYMQLNSLTSEDSAVYYCARGGDYGAGYALDYWGQGTSVTVSS VL: QIVLTQSPAIMSASPGEKVTMTCSASSSVSYMYWYQQKPGSSPRLLIYDTSNLASGVPVRFSGSGSGTSYSLTISRMEAEDAATYYCQQWSSYPPTFGAGTKLELKR is 0.02
